Tested on: UACC-257 melanoma
experiment notes: NCI-60 one-dose screen, 48 h (100 = growth as untreated, 0 = no growth, -100 = all killed)
study conditions: 10 µM unless noted
About 83,000 compounds went through this panel and 20% of them were active in at least one assay; those are over-represented in the sample as a whole.
Please note: growth exactly at 90% is Not met. Only values below 90% get Met.

Some solved entries appear below for comparison.
molecule: O=C([O][Hg][CH2]C1OCCOC1[CH2][Hg][O]C(=O)c1ccccc1)c1ccccc1 (stereo not given)
discrete label: Met
//
molecule: COc1ccc(/C=C\c2cc(OC)c(OC)c(OC)c2)c(NS(=O)(=O)c2ccc(Cl)cc2)c1O
discrete label: Met

--- query ---
query: Just wondering, is growth of "NC(CCl)CCl" below 90%?
result: Not met

====

Please respond with reported growth for every item in the list.
System: SR leukemia
experiment notes: NCI-60 one-dose screen, 48 h (100 = growth as untreated, 0 = no growth, -100 = all killed)
study conditions: 10 µM unless noted
This is part of a sample that, as a whole, favours compounds with a hit. Of some 83,000 tested, about 20% had one in any assay.
Give bare numbers, in %.

Recorded results for 3 compounds are shown here.
smiles notation: CC(=O)OC[C@]1(C)C=C2C(=O)[C@](C)(O)C3(CC3)C(C)=C2[C@H]1OC(=O)N(C)CCN(C)C(=O)OC(C)(C)C
growth / %: 14

smiles notation: C=C(C)[C@@]12OC3(/C=C/C=C/CCCCC)O[C@@H]1[C@@H]1[C@@H]4O[C@]4(CO)[C@@H](O)[C@]4(O)C(=O)C(C)=C[C@H]4[C@@]1(O3)[C@H](C)[C@H]2OC(=O)c1ccccc1
growth / %: 67.2

smiles notation: Nc1ccc(-c2nc3cc(F)ccc3[se]2)cc1F
growth / %: 15.5

Dear colleague, could you send me growth for each of the items below? Thanks.
1. O=C1C(N2CC2)=C(N2CC2)C(=O)C(N2CC2)=C1N1CC1
2. COc1cc2c(=O)n(C3CCCCCCC3)c3c4cc[nH]c4ncc3c2cc1OC
3. c1cc2c(c3c1CCNC3)OCO2
4. COc1ccc(S(=O)(=O)Nc2c(/C=C\c3cc(OC)c(OC)c(OC)c3)ccc(OC)c2O)cc1OC
5. CC(C)=CCC[C@H](C(=O)O)[C@@H]1CC[C@]2(C)C3=C(CC[C@@]12C)[C@@]1(C)CC[C@H](O)C(C)(C)[C@@H]1CC3

result:
2.9
17.4
93
15.9
91.8

====

Test system: SW-620 colon
experiment notes: NCI-60 one-dose screen, 48 h (100 = growth as untreated, 0 = no growth, -100 = all killed)
study conditions: 10 µM unless noted
This is part of a sample that, as a whole, favours compounds with a hit. Of some 83,000 tested, about 20% had one in any assay.
Please respond with reported growth for every item in the list.
One number for each entry, in %.

Recorded results for 5 molecules are shown here.
molecule: COC(=O)[C@@H](C)C[C@H](Cc1ccccc1)NC(=O)c1csc([C@@H](C[C@H](C(C)C)N(C)C(=O)[C@H](C)NC(=O)[C@H]2CCCCN2C)OC(C)=O)n1
measurement target: SW-620 colon
units: %
growth: 18.4
--
molecule: C/C=C(\C)C(=O)O[C@@H]1C(O)[C@H]2OC(COC(=O)CCC(=O)CCCCCC[C@H](CCCCC)O[C@@H]3OC(C)[C@H](OC(C)=O)C(O)[C@H]3O2)[C@H]1OC(=O)/C=C/c1ccccc1 (stereo not given in full)
measurement target: SW-620 colon
units: %
growth: 24.6
--
molecule: Clc1cccc(NCOOC2(OOCNc3cccc(Cl)c3)CCCCCC2)c1
measurement target: SW-620 colon
units: %
growth: 107
--
molecule: CC1(C)N=C(N)N=C(N)N1c1ccc(OCCCNC(=O)Nc2ccc(S(=O)(=O)F)cc2)c(Cl)c1
measurement target: SW-620 colon
units: %
growth: 20.6
--
molecule: CN(CCCCN(C)CCOS(C)(=O)=O)CCOS(C)(=O)=O
measurement target: SW-620 colon
units: %
growth: 74.1

Dear colleague, could you send me growth for each of the items below? Thanks.
1. CCn1nccc1NC(=O)C(=O)c1cn(Cc2ccc(F)cc2)c2cccc(OC)c12
2. CCC(C)(C)[C@H](NC(=O)[C@H]1CCCCN1C)C(=O)N(C)[C@H](C[C@@H](OC(C)=O)c1nc(C(=O)N[C@@H](Cc2ccccc2)C[C@H](C)C(=O)O)cs1)C(C)C

result:
93.3
26.6

Dear colleague, could you send me growth for each of the items below? Thanks.
1. CC(=O)OC1CCC2(C)C(CCC3C2CC(=O)C2(C)C3CC(Sc3ccc(N(CCCl)CCCl)cc3)C2C(C)=O)C1 (stereo not given)
2. COc1ccc(/C=C\c2cc(OC)c(OC)c(OC)c2)c(NS(=O)(=O)c2ccc(C)cc2)c1O
3. Fc1ccc(C2=CCNCC2)cc1
4. CN(C)C1C(=O)C(C(N)=O)=C(O)C2(O)C(=O)C3=C(O)c4c(O)cccc4C(C)(O)C3CC12.[Cl][Sb]([Cl])[Cl] (stereo not given)
5. CCn1c2ccccc2c2cc(C(=O)c3ccc(C)c4ccccc34)ccc21
6. CC[C@H](C)[C@H](NC(=O)NC(C)(C)C)C(=O)N(C)[C@H](C[C@@H](OC(C)=O)c1nc(C(=O)N[C@@H](Cc2ccccc2)C[C@H](C)C(=O)OC)cs1)C(C)C
7. COC(=O)[C@@H](C)C[C@H](Cc1ccccc1)NC(=O)c1nc([C@@H](C[C@H](C(C)C)N(C)C(=O)[C@@H](NC(=O)[C@H]2CCCCN2C)C(C)C)OC(C)=O)sc1C
8. CCCC[C@H](NC(=O)[C@H]1CCCCN1C)C(=O)N(C)[C@H](C[C@@H](OC(C)=O)c1nc(C(=O)N[C@@H](Cc2ccccc2)C[C@H](C)C(=O)OCC)cs1)C(C)C

result:
1: 68.4; 2: 24.9; 3: 104; 4: 34.7; 5: 11.8; 6: 20.5; 7: 20.1; 8: 24.6

====

Please respond with reported growth for every item in the list.
Tested on: HS 578T breast
experiment notes: NCI-60 one-dose screen, 48 h (100 = growth as untreated, 0 = no growth, -100 = all killed)
study conditions: 10 µM unless noted
Compounds without any hit were thinned out: in the full panel of roughly 83,000, 20% have a hit.
Answers are plain numbers, in %.

molecule: C/C=C(\C)C(=O)O[C@@H]1C(O)[C@H]2OC(COC(=O)CCC(=O)CCCCCC[C@H](CCCCC)O[C@@H]3OC(C)[C@H](OC(C)=O)C(O)[C@H]3O2)[C@H]1OC(=O)/C=C/c1ccccc1 (some centres undefined)
number: 28.7

molecule: C#C[C@]1(OC(=O)CCCCCC)CC[C@H]2[C@@H]3CCC4=CC(=O)CC[C@@H]4[C@H]3CC[C@@]21C
number: 72

molecule: C=COC(=O)CCN1CC1
number: 104

Dear colleague, could you send me growth for each of the items below? Thanks.
1. COc1ccc(-n2c(C)nc3cc(OC)c(OC)cc3c2=O)cc1OC
2. CC(=O)O[C@H]1CC[C@H]2[C@@H]3CC=C4c5nc(-c6ccccc6)sc5CC[C@]4(C)[C@H]3CC[C@]12C
3. Cc1ccc(C(=O)NCCCOc2ccc(N)cc2Cl)cc1S(=O)(=O)F
4. C[n+]1c(/C=C/c2ccc(N(CCCl)CCCl)cc2)sc2ccccc21
5. COc1ccc2c(c1)c(-c1nc(-c3c[nH]c4ncccc34)cs1)cn2CCCCN1CCCCC1
6. O=C(CC1(O)C(=O)Nc2ccc(Br)cc21)c1ccc(C(=O)NCC2CCC3(CC2)OOC2(CCCCC2)OO3)cc1 (centres undefined)

result:
[101, 64.2, 98, 98.8, -23.3, 62.9]

====

Test system: DU-145 prostate
experiment notes: NCI-60 one-dose screen, 48 h
study conditions: 10 µM unless noted
This is part of a sample that, as a whole, favours compounds with a hit. Of some 83,000 tested, about 20% had one in any assay. Activity calls are given as the source filed them. How the source made its calls: active means growth percent below 10; inactive means the rest.
Please reply with one of these outcomes: Y (active), N (inactive)

Some solved entries appear below for comparison.
molecule: O=C(Nc1ccc(Cl)cc1)Nc1nccs1
discrete label: N
--
molecule: O=C1CNC(c2ccccc2)c2cc(Cl)ccc2N1 (stereo not given)
discrete label: N
--
molecule: [Cl][Hg][c]1cc[c]([Hg][Cl])o1
discrete label: N
--
molecule: COC(=O)[C@@H](C)C[C@H](Cc1ccccc1)NC(=O)c1csc([C@@H](C[C@H](C(C)C)N(C)C(=O)[C@@H](NC(=O)[C@H]2CCCN2C)C2CC2)OC(C)=O)n1
discrete label: Y
--
molecule: CCOC(=O)[C@@H](C)C[C@H](Cc1ccccc1)NC(=O)c1csc([C@@H](C[C@H](C(C)C)N(C)C(=O)[C@@H](NC(=O)[C@H]2CCCCN2C)C(C)(C)CC)OC(C)=O)n1
discrete label: Y
--
molecule: Brc1ccc2c(c1)c(-c1nc(-c3c[nH]c4ncccc34)cs1)cn2CCN1CCCCC1
discrete label: N
--
molecule: O=[N+]([O-])/C=C\c1ccc(Cl)c(Cl)c1
discrete label: N
--
molecule: COC(=O)[C@@]1(O)C[C@H]2O[C@]1(C)n1c3ccccc3c3c4c(c5c6ccccc6n2c5c31)C(=O)NC4
discrete label: Y
--
molecule: COC(=O)[C@@]1(C)CC[C@]2(C)CC[C@]3(C)C4=CC=C5C(=CC(=O)C(O)=C5C)[C@]4(C)CC[C@@]3(C)[C@@H]2C1
discrete label: Y
--
molecule: CCCC[C@H](NC(=O)[C@H]1CCCN1C)C(=O)N(C)[C@H](C[C@@H](OC(C)=O)c1nc(C(=O)N[C@@H](Cc2ccccc2)C[C@H](C)C(=O)OCC)cs1)C(C)C
discrete label: N

query: Hey, what did the test say about "Nc1c(F)cc(-c2nc3cc(F)ccc3[se]2)cc1Br" ?
result: N

query: Hey, what did the test say about "CC(=O)O[C@@H]1CC[C@]2(C)[C@H]3CC[C@]4(C)C(=O)CC[C@H]4[C@@H]3C[C@@H]3SC(N)=N[C@@]32C1" ?
result: N

query: Hey, what did the test say about "Nc1ccc(-c2nc3cc(F)ccc3[se]2)cc1F" ?
result: N

query: Hey, what did the test say about "CNC(=O)Oc1ccc2c(c1)OCO2" ?
result: N

query: Hey, what did the test say about "C=CC[Se]C(=O)c1ccccc1OC(C)=O" ?
result: Y

query: Hey, what did the test say about "CCCC[C@H](NC(=O)[C@H]1CCCCN1C)C(=O)N(C)[C@H](C[C@@H](OC(C)=O)c1nc(C(=O)N[C@@H](Cc2ccccc2)C[C@H](C)C(=O)OCC)cs1)C(C)C" ?
result: N

query: Hey, what did the test say about "COc1ccc(/C=C\c2cc(OC)c(OC)c(OC)c2)cc1OCC(=O)Nc1nc2ccc(F)cc2s1" ?
result: N

query: Hey, what did the test say about "COc1cc2c(cc1OCCCCn1c(-c3cccs3)nc3ccccc31)N=C[C@@H]1CCCN1C2=O" ?
result: N

query: Hey, what did the test say about "COc1ccc(S(=O)(=O)Nc2c(/C=C\c3cc(OC)c(OC)c(OC)c3)ccc(OC)c2O)cc1OC" ?
result: Y

query: Hey, what did the test say about "O=[N+]([O-])c1c(Br)sc(Br)c1[N+](=O)[O-]" ?
result: N

query: Hey, what did the test say about "O=C(Nc1ccc([N+](=O)[O-])cc1)C(Cl)(Cl)Cl" ?
result: N

query: Hey, what did the test say about COc1ccc(C2=CC(c3ccc(OC)c(OC)c3)c3c(c4ccccc4oc3=O)O2)cc1OC (stereo not given) ?
result: Y

query: Hey, what did the test say about CN1CC(CNC(=O)OCc2ccccc2)CC2c3cccc4c3c(cn4C)CC21 (stereo not given) ?
result: N

query: Hey, what did the test say about CN(C)CC(C(=O)Cc1ccccc1)c1ccccc1 (stereo not given) ?
result: Y

query: Hey, what did the test say about CCOC(=O)CCC(NC(=O)C(Cc1ccc(N(CCCl)CCCl)cc1)NC=O)C(=O)OCC (stereo not given) ?
result: N

query: Hey, what did the test say about NC(=S)c1cn(C2OC(CO)C(O)C2O)c2ncnc(N)c12 (stereo not given) ?
result: Y
